All values here come from the DeepSol protein solubility set.

assay: soluble on expression in E. coli; label from the status in PepcDB or PDB records
Readout: soluble on expression in E. coli

Chain	Readout Value
MKQIYFGGGCFWGTQKYFDLIKGVQKTSVGYLNSNMKNPTYEQVCSGQTNAVEAVFVEYDENKVSLNELIDAFFKVIDPTIRNRQGNDIGTQYRTGVYWVDPQDEQLITQKFRELQANYPKPIVTENRAMENYFLAEEYHQDYLKKNPHGYCHIKFD	soluble
GSTAIGINDTYSEVKSDLAQQKAEMELSDLIRKGYHKALVKLKLKKNTVDDISESLRQGGGKLNFDELRQDLKGKGHTDAEIEAIFTKYDQDGDQELTEHEHQQMRDDLEKEREDLDLDHSSL	soluble
MESGSWRPPFSTGKIVGNYGLLKLYLEVAREKGRRDLVDKALISEDDVDMLRRLSASPGATAEDFVNALEERFVERVDPEVASEALARAGINVDGDTARRMIARILAGWLVEMGEEMKLYRLRRSWED	soluble
MLKSELRKKVLHKRINLSEEERRRLSEKVISNLKSLPEFKKSKKVALYCPIKGEVDLTPLFPEVLKEKELILPKVEGNEISLYRVHSPACLGVGAFGIMEPVEGERVNPEDVDFIAVPGVAFDLEGYRLGFGKGYYDRLLKRVKGLKVGVAYSFQVFERLPRDAWDIPVDVLVTEKNVRRLRDGRSLEHHHHHH	soluble
MGLIKTIGRKPSVQWALSHLASGYLRLVRRTNRFTLEPADAYARLDAFGPFIAAMWHGQHIMISFMSRPQDRVATIISRSPDGNINTMALTRMGVRVMRASGARGRAVKDARAKGGAEGLRAMVKALKGGETVAFSADVPKVSRVCDAGIILLARFSGAPIVPVAVVTSRHIRFNSWDRACLGLPFGRGAMVFGEATFVPREVTPEEVDALRQRVQDELNRVHDRAYTLVGLEHHHHHH	soluble
MAPGTKKKSDMAKFTFYKDRLMTFKNFEYDRDPDAKCTSQAVAQAGFYCTGPQSGKCAFCNKELDFDPEDDPWYEHTKRDEPCEFVRIGKLDDSELTINDTVRLSQTAMIMTKLFEHEMMINNLSNHSSSDALFDQLKKVPNTASTTKSNSRRGK	not soluble
MSLNTQDFLAGYTKRFVDNKEEDMSLDEYLELCKTDPTAYANPAERLLMAIGEPELIDTRHDPVLSRIFSNKIIHHYEVFKDFYGMEEPIEQIVGFLKHAAQGLEETKQVLYLLGPVGGGKSSIAEKLKDLMERIPFYAIKGSPVFESPLSLFNPLEDGELLRERFGIPTRYLRYLMSPWAVKRLQEYNGDISKFRVIKVKPSRLKQIAIAKTEPGDENNQDISSLVGKVDIRKLEEFSQDDPDAYSYSGGLCRANRGLLEFVEMFKAPIKVLHPLLTATQEGNYNATEGLSAIPFEGIILAHSNESEWQSFRNNEGHHHHHH	not soluble
MVLLHHQPLGSHHATTSGGSLLERADLSHPIPENARKLAQLVEYDESRVELGTHSVFVREARPPGAHYSKATVIFLHGQSFSSSTWTENNLLRTFAALGYRAIAIDLPGSGQTRGAAIPQAEKPNFLMDFIETLGLKQVMIVCASMAAQYVLPLMTSTRHLSCVVLVAPSNTHEVVSPSSYTVPTLVVWGERDTSLGPTAAANLKNLPQVKLQKIPDAGHACYLHNPKCFENLCVNFFDLIRSYHH	not soluble
MGSDKIHHHHHHMPEFRKDPIIKRWVIIATERAKRPHDFARTKVEEVREGFCPFDYGNEHTTPPEIFAFRPADTEPNTPGWWVRVVPNKFPAVDPNAPLRKYGRGMYDAAMGFGYHDVVVETPDHNSHLAVMDYKNVEEVIWAYKIRYEQLMKDERIKYILIFKNHGRDAGASLSHPHSQIIALPIMPKRVQEELDGSKEYYEYKERCPFCDIIDEEKRERERIVEENDHFIALEPFAARFPFETWILPKRHMNSFHLISEDEVGSLAKILKNVLYRIYAALDNPPYNLLIHTAPTSLEGKDYYHWHIEIFPRLTKVAGFEWGTGFYINTVPPEDAARYLREVSLEQV	not soluble
MNPLLTDSRRQALRSASHWYAVLSGERVSPQQEARWQQWYEQDQDNQWAWQQVENLRNQLGGVPGDVASRALHDTRLTRRHVMKGLLLLLGAGGGWQLWQSETGEGLRADYRTAKGTVSRQQLEDGSLLTLNTQSAADVRFDAHQRTVRLWYGEIAITTAKDALQRPFRVLTRQGQLTALGTEFTVRQQDNFTQLDVQQHAVEVLLASAPAQKRIVNAGESLQFSASEFGAVKPLDDESTSWTKDILSFSDKPLGEVIATLTRYRNGVLRCDPAVAGLRLSGTFPLKNTDAILNVIAQTLPVKIQSITRYWINISPL	soluble
MGSDKIHHHHHHMDTKQLKQDIIDYAYTIGIDSIGFTTADPFDELKQKLEAYHANGYASGFEESDIALRTEPKLSLPTARSIIAIAVGYPNKLKGAPKSVRGDRRGLFARASWGQDYHTIMRKRLDMLAAFIESKVPDVEIKSMVDTGVLSDRAVAERAGLGFVGRNGFVINPKLGTWTYLGEMLVSIPFEPDDPLLDSCGDCTICVDRCPTSALVGNGQLNSQKCISFLTQTKGYMPDQYRYKIGNRLYGCDTCQQVCPKNRGINTEQDDIILEPEILKPRLVPLLRMSNKEFKQTYGHLAGAWRGKKPIQRNAILALAHFNEVDAIPELKKVATTDERPMIRATAYWAIGQILGEEARDFINANYDQEDAEVQNEMIKGLDTRRE	not soluble
MAHHHHHHMHFSLQKKNICTNSTKCVNVHPYLFPPLGMVPKRVRYDVHRGGEQHTDITNLLHTFKRFKMVKTSSYRRKSRSSPNGQGQKAKIGIKRLSAEYVKTGQLLVKQRKIIAFNLERKTRRRNFKYYPGEHVKVTKNTSLVALTNGRVKYTFHTTQNVLIVNVLPEEIDELREEDLYRYRTEHVRSLEENRSLVYLRMKHVVSFPPSKETQFRKPPLRPQFLARYDIEDNPTLREVPVLYHKPK	not soluble
